# Subject Of Test: Nav1.5 (Homo sapiens (Human))
# Run Description: Inhibition of cardiac sodium ion channel Nav1.5
Readout Label: EC50

GET /values?readout=EC50&item= COCCCOc1cc2c(cc1OC)-c1cc(=O)c(C(=O)O)cn1[C@H]1[C@@H]2OCC1(C)C [Compound 4.1]
> 500 µM
